Provenance of the data: PubChem BioAssay (NCATS)

target: Tumor susceptibility gene 101 protein (Homo sapiens) (UniProt Q99816); assay: qHTS Assay for Iinhibitors of HIV-1 Budding by Blocking the Interaction of PTAP/TSG101: Hit Validation (AID 651600); conditions: PTAP peptide/TSG101 UEV interaction, biochemical assay; series mostly up to 57.5 µM; further: nearly all actives have a fitted effect of over 70% in size
Sequence (Q99816 whole entry, looked up): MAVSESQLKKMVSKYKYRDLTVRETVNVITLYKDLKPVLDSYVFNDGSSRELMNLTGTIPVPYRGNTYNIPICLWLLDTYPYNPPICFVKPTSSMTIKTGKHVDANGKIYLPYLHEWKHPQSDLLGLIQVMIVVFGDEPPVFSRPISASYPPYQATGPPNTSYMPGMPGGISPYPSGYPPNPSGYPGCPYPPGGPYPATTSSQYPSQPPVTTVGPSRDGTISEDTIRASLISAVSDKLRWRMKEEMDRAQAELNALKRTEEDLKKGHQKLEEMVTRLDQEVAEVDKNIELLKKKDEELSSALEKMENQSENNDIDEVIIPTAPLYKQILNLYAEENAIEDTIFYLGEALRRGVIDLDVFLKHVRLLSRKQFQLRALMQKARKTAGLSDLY
Results filed as inconclusive are left out. Activity calls are given as the source filed them. The call rests on the fitted dose curve; in most records, active means well fitted inhibition curve with a large enough effect; inconclusive means small, poorly fitted or top-dose-only effect; inactive means no such curve, though single readings can be large or run the other way.
Labels: Yes = active, No = inactive

# Molecule, Class
measured = [
    ("CCN(CC)c1ccc2cc(NC(=O)CCC(=O)O)c(=O)oc2c1", "Yes"),
    ("Brc1ccc(-c2nc3ccccn3c2Nc2ccc3c(c2)OCCO3)o1", "No"),
    ("CCOC(=O)Cn1c(=NC(=O)c2ccc([N+](=O)[O-])s2)sc2ccccc21", "No"),
    ("Nc1ccc2c(c1)C/C(=C/c1ccco1)C2=O", "No"),
    ("CCN(CC)S(=O)(=O)c1ccc(C(=O)OCCN2C(=O)c3cccc4c(N5CCOCC5)ccc(c34)C2=O)cc1", "Yes"),
    ("CCN(CC)c1ccc(/C=C(\\C#N)C(=O)NCc2ccccc2)cc1", "Yes"),
    ("COc1ccc(C2C(C(=O)c3cccs3)=C(O)C(=O)N2c2nncs2)cc1 (stereo unspecified)", "Yes"),
    ("O=c1[nH]nc(-c2ccc(F)cc2)cc1Cc1ccc(F)cc1", "No"),
    ("NC(=O)c1ccccc1NCC(=O)c1ccc(F)cc1", "No"),
    ("CCC1CCCCN1C(=O)c1cc2cc(Br)ccc2oc1=O (stereo unspecified)", "No"),
    ("O=[N+]([O-])c1cc(Cl)c2cccnc2c1O", "No"),
]

====

biological target: Cytochrome P450 2C19 (Homo sapiens) (UniProt P33261); test: qHTS Assay for Inhibitors and Substrates of Cytochrome P450 2C19 (AID 899); details: recombinant CYP2C19, luciferin-H EGE luminescence; series mostly up to 11.4 µM; further: nearly all actives have a fitted effect of over 60% in size
Sequence (P33261 whole entry, looked up): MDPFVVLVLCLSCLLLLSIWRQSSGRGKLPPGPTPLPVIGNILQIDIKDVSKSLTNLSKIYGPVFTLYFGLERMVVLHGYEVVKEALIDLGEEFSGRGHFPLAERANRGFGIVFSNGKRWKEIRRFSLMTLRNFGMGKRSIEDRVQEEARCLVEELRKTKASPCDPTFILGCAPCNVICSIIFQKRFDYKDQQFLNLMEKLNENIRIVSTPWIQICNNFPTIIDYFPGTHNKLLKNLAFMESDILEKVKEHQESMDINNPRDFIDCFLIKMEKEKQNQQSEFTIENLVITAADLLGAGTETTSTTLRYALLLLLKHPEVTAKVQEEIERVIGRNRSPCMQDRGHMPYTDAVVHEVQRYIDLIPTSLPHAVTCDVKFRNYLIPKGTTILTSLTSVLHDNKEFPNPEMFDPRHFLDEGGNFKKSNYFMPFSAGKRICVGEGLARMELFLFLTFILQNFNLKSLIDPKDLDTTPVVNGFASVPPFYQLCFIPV
Records with an inconclusive call do not appear. The source made the active and inactive calls. Calls come from the whole dose curve; as a rule, active = well fitted inhibition curve with a large enough effect; inconclusive = small, poorly fitted or top-dose-only effect; inactive = no such curve, though single readings can be large or run the other way.
Labels: true (1) (active), false (0) (inactive)

# Compound, Measurement target, Class
rows = [
    ("COC(=O)C1=C(C)N(Cc2ccccc2)C2=C3C(=O)OCCC3[C@@](O)(C(=O)OC)C(=O)N2C1c1ccccc1 (stereo partly drawn)", "Cytochrome P450 2C19 (Homo sapiens) (UniProt P33261)", "false (0)"),
    ("CC1(C)OC(C(O)(c2cc(C(F)(F)F)cc(C(F)(F)F)c2)c2cc(C(F)(F)F)cc(C(F)(F)F)c2)C(C(O)(c2cc(C(F)(F)F)cc(C(F)(F)F)c2)c2cc(C(F)(F)F)cc(C(F)(F)F)c2)O1 (stereo not drawn)", "Cytochrome P450 2C19 (Homo sapiens) (UniProt P33261)", "false (0)"),
    ("Cc1ccc(S(=O)(=O)N[C@@H](CCc2ccccc2)CC(=O)C(C)(C)C)cc1", "Cytochrome P450 2C19 (Homo sapiens) (UniProt P33261)", "true (1)"),
    ("COC(=O)[C@H](Cc1ccccc1)NC(=O)[C@@H](C)CO", "Cytochrome P450 2C19 (Homo sapiens) (UniProt P33261)", "true (1)"),
    ("CC12C=C(/C=C/c3ccc(Br)cc3)C(C)(C1)C(c1ccc(Br)cc1)CC2=O (stereo not drawn)", "Cytochrome P450 2C19 (Homo sapiens) (UniProt P33261)", "false (0)"),
    ("CC1CCC(C(=O)O)NC1c1cccc(N2CCCC2=O)c1 (stereo not drawn)", "Cytochrome P450 2C19 (Homo sapiens) (UniProt P33261)", "false (0)"),
    ("COC(=O)NC(c1cccc(C)c1)C(C(C)=O)C(=O)OC (stereo not drawn)", "Cytochrome P450 2C19 (Homo sapiens) (UniProt P33261)", "false (0)"),
    ("CC12C=C(/C=C/C=C/c3ccco3)C(C)(C1)C(/C=C/c1ccco1)CC2=O (stereo not drawn)", "Cytochrome P450 2C19 (Homo sapiens) (UniProt P33261)", "false (0)"),
    ("CCN1C(C)=C(C(=O)OC)C(c2ccccc2)N2C(=O)[C@](O)(C(=O)OC)C(c3ccccc3)C(C(C)=O)=C12 (stereo partly drawn)", "Cytochrome P450 2C19 (Homo sapiens) (UniProt P33261)", "false (0)"),
    ("C=CCOC(=O)C(C(C)=O)C(NC(=O)OC)c1ccc(Cl)cc1 (stereo not drawn)", "Cytochrome P450 2C19 (Homo sapiens) (UniProt P33261)", "true (1)"),
    ("COC(=O)C1C(C)OC(=O)NC1c1ccccc1 (stereo not drawn)", "Cytochrome P450 2C19 (Homo sapiens) (UniProt P33261)", "false (0)"),
    ("CC1Cc2c(-c3ccccc3)nc3c(c2CO1)CN(CCOc1ccccc1)CC3 (stereo not drawn)", "Cytochrome P450 2C19 (Homo sapiens) (UniProt P33261)", "false (0)"),
    ("COc1ccc(OC)c(C2OCCC=CC2C)c1 (stereo not drawn)", "Cytochrome P450 2C19 (Homo sapiens) (UniProt P33261)", "false (0)"),
    ("CCCCCCCC#Cc1ccccc1/C=N/S(=O)C(C)(C)C (stereo not drawn)", "Cytochrome P450 2C19 (Homo sapiens) (UniProt P33261)", "false (0)"),
    ("COC(=O)[C@@]1(Cc2ccccc2)[C@H]2c3cc(C(=O)N(C)C)n(Cc4c(CO)[nH]cc(C)c4=O)c3C[C@H]2CN1C(=O)c1ccccc1", "Cytochrome P450 2C19 (Homo sapiens) (UniProt P33261)", "true (1)"),
    ("Cc1ccc(S(=O)(=O)N[C@H]2COC(=O)C/C=C\\[C@@H](C)[C@H](NS(=O)(=O)c3ccc(C)cc3)COC(=O)[C@H](C)NC(=O)C/C=C\\[C@H]2C)cc1", "Cytochrome P450 2C19 (Homo sapiens) (UniProt P33261)", "false (0)"),
    ("COC(=O)[C@@H]1CC[C@H](C)[C@@H](c2ccc(C)cc2)N1C(=O)c1ccc(/C=N\\OC[C@@H](O)[C@H]2O[C@H]3OC(C)(C)O[C@H]3[C@@H]2O)cc1", "Cytochrome P450 2C19 (Homo sapiens) (UniProt P33261)", "true (1)"),
    ("COC(=O)NC(c1ccc(F)cc1)C(C(C)=O)C(=O)OC (stereo not drawn)", "Cytochrome P450 2C19 (Homo sapiens) (UniProt P33261)", "false (0)"),
]

====

tested on: CP262; experiment: qHTS profiling for inhibitors of Plasmodium falciparum proliferation (AID 504749);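 further: 0% = DMSO vehicle and full inhibition = artemisinin control; nearly all actives have a fitted effect of over 60% in size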; conditions: P. falciparum in erythrocytes, SYBR Green DNA, 72 h; series mostly up to 28.7 µM
Inconclusive results are not listed. The source made the active and inactive calls. Calls come from the whole dose curve; as a rule, active = well fitted inhibition curve with a large enough effect; inconclusive = small, poorly fitted or top-dose-only effect; inactive = flat fitted curve, though single readings scatter. Numbered stars: 1 amine (or outer) side, 2 acyl side, 3 side chain; on linkers, the order of the positions; unused ones are H or OH. Bridge positions count the residues as written; N and C are the ends. Square brackets hold non-standard residues; d marks the D form. Peptide text beside a SMILES is read from it. * marks the point of attachment. ξ: configuration not given here. ΔAla(Z-3-ureido) = NC(=O)N/C=C(\N)C(=O)O; X1 = NC1=NCCC(C(N[*:1])C(=O)[*:2])N1; ξβ3hOrn = NCCCC(N)CC(=O)*; Dap = NC[CH](N)C(=O)O

# Molecule, outcome
records = [
    ("CNCC(=O)NC(CCCN=C(N)N)C(=O)NC(C(=O)NC(Cc1ccc(O)cc1)C(=O)NC(C(=O)NC(Cc1cnc[nH]1)C(=O)N1CCCC1C(=O)NC(C)C(=O)O)C(C)C)C(C)C (stereo not drawn)", "inactive"),
    ("NCCCC(N)CC(=O)NCC1NC(=O)C(CO)NC(=O)C(N)CNC(=O)C(C2CCN=C(N)N2)NC(=O)/C(=C/NC(N)=O)NC1=O (stereo not drawn) (H-[Dap]S[Dap](ξβ3hOrn)[ΔAla(Z-3-ureido)][X1]; lactam 1-C; configuration not given here)", "inactive"),
    ("O=C(O)c1ccccc1-c1c2cc(Br)c(=O)c(Br)c-2oc2c(Br)c(O)c(Br)cc12", "inactive"),
]

====

molecular target: Cytochrome P450 3A4 (Homo sapiens) (UniProt P08684); experiment: qHTS Assay for Activators of Cytochrome P450 3A4 (AID 885); conditions: recombinant CYP3A4, Luciferin-PPXE luminescence, 60 min; series mostly up to 57.1 µM; further: nearly all actives have a fitted effect of over 65% in size
Sequence (P08684 whole entry, looked up): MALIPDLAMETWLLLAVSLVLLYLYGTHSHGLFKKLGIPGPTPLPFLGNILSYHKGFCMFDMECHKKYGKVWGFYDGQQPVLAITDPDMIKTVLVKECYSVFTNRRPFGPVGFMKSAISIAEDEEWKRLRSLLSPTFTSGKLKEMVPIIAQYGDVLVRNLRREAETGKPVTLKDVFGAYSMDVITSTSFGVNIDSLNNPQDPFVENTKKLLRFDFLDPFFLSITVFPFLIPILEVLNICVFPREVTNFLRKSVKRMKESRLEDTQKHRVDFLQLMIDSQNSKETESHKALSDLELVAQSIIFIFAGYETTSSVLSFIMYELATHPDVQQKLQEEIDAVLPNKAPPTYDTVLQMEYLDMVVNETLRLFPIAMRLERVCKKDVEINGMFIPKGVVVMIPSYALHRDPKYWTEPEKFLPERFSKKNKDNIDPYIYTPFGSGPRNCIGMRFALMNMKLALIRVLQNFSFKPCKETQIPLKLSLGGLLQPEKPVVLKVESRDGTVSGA
Activity calls are given as the source filed them. Calls come from the whole dose curve; as a rule, active = well fitted activation curve with a large enough effect; inconclusive = small, poorly fitted or top-dose-only effect; inactive = no such curve, though single readings can be large or run the other way.
Property label: activity change, positive = activation

# Molecule, Property label, Reported value
rows = [
    ("CC(=O)N1[C@H](Cc2ccccc2)C=C[C@]1(C)C(=O)NCCN1CCOCC1", "activity change, positive = activation", "inactive"),
    ("COC(=O)c1ccc(C(NC(=O)OCc2ccccc2)/C(=C/[C@@H](C)C(=O)NCc2cccnc2)c2cccnc2)cc1 (some centres undefined)", "activity change, positive = activation", "inactive"),
    ("COC(=O)C(/C=C/C(C)Cc1cc(Br)cc(OCc2ccccc2)c1OC)OCc1ccccc1 (centres undefined)", "activity change, positive = activation", "-50.4% [at 11.4 µM] (inactive)"),
    ("CNC(=O)[C@@]1(Cc2ccccc2)C=C[C@@H](C)N1C(=O)OC", "activity change, positive = activation", "inactive"),
    ("COc1ccc(O[C@H]2C=C[C@@H](c3ccccc3)O[C@@H]2CO/N=C\\[C@@H](C)[C@H](OCc2ccccc2)C(C)C)cc1", "activity change, positive = activation", "-73.9% [at 11.4 µM] (inactive)"),
    ("Cc1cccc(-c2cc(=O)c3cc(C)ccc3o2)c1", "activity change, positive = activation", "inactive"),
    ("COc1cccc([C@H]2Oc3ccc(OC)cc3/C(=N\\OC[C@@H](O)[C@@H]3O[C@@H]4OC(C)(C)O[C@@H]4[C@H]3O)[C@@H]2O)c1", "activity change, positive = activation", "-69.8% [at 11.4 µM] (inactive)"),
    ("CC(C)=CCc1c(O)cc2occ(-c3ccc4c(c3)OCO4)c(=O)c2c1O", "activity change, positive = activation", "inactive"),
    ("CC(C)CC1(C(=O)NCC2CC2)C=CCN1C(=O)c1ccccc1 (centres undefined)", "activity change, positive = activation", "inactive"),
    ("Cc1ccc(S(=O)(=O)N[C@H]2COC(=O)C/C=C\\[C@@H](C)COC(=O)C/C=C\\[C@@H]2C)cc1", "activity change, positive = activation", "-68.8% [at 11.4 µM] (inactive)"),
    ("COC(=O)N1CC=CC1(C)C(=O)NCc1ccc(C)o1 (centres undefined)", "activity change, positive = activation", "inactive"),
    ("CC(C)CC1(C(=O)NCCN2CCOCC2)C=CCN1C(=O)c1ccccc1 (centres undefined)", "activity change, positive = activation", "inactive"),
    ("CN1C[C@@H]2C(c3ccccc3)C3(c4cccnc4)CC2(C3)[C@H]1c1ccccc1 (some centres undefined)", "activity change, positive = activation", "inactive"),
    ("CCC1=C2CC[C@H]3C(=O)N(c4ccccc4)C(=O)[C@H]3[C@H]2[C@@]2(Cc3ccccc3)C(=NCCc3c[nH]c4ccccc34)OC(=O)N2C1=O", "activity change, positive = activation", "inactive"),
    ("C=C(C)C(O)/C=C/c1ccccc1OC (centres undefined)", "activity change, positive = activation", "-35.5% [at 11.4 µM] (inactive)"),
    ("COC(=O)c1ccc(C(NC(=O)OCc2ccccc2)/C(C)=C/[C@@H](C)C(=O)NCc2cc(C)on2)cc1 (some centres undefined)", "activity change, positive = activation", "inactive"),
    ("Clc1ccc2nc(-c3ccccc3)[nH]c2c1", "activity change, positive = activation", "inactive"),
    ("COCCNC(=O)[C@@]1(C)C=C[C@@H](Cc2ccccc2)N1C(=O)c1ccccc1", "activity change, positive = activation", "inactive"),
    ("Cc1c(C(=O)NC2CCCCC2)sc2nc3ccc(N)cc3n12", "activity change, positive = activation", "inactive"),
]
